This section presents compounds with their documented % inhibition apPOL 180' 10 values.
system.tested: P. falciparum apicoplast DNA polymerase (Pf-apPOL) (Plasmodium falciparum)
Sequence (Q8ILY1 entry or part of it): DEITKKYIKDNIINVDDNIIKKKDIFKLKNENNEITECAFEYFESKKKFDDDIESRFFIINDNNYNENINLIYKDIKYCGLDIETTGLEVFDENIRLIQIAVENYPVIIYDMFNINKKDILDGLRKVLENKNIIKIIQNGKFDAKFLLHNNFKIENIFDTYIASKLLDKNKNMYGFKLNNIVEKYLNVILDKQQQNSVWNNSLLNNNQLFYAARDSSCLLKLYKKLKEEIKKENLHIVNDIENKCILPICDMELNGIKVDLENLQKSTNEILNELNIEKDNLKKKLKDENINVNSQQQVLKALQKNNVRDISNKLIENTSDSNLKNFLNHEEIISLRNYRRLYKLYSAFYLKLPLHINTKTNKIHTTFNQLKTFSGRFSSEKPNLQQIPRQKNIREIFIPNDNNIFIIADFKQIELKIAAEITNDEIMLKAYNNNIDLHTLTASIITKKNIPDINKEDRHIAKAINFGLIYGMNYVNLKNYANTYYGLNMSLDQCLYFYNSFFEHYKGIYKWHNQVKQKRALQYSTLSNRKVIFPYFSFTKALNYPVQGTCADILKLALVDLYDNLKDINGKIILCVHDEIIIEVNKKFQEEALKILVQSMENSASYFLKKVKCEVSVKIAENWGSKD
test.summary: Fluorescence-based high-throughput DNA polymerase assay (molecular beacon), primary screen and dose-response
Format: biochemical
condition.label: DRC-1; read at 180'; concentration 10
Record the result as number plus unit.

Here are 6 compounds together with their reported answers.
{"compound": "Cc1cccc(-c2noc(C(=O)NNC(=O)C(Cl)(Cl)Cl)n2)c1 [KU0266208]", "% inhibition apPOL 180' 10": "-0.4994%"}
{"compound": "Cc1ccc(N2CCC(NC(=O)Cc3cccs3)C2=O)cc1C (stereo not drawn) [Molecule 57, O=C(NC1CCN(C1=O)c1ccc(c(c1)C)C)Cc1cccs1]", "% inhibition apPOL 180' 10": "11.4485%"}
{"compound": "O=C(CCc1csc(NC(=O)Nc2ccccc2)n1)Nc1nc2ccccc2s1 [KU0177354]", "% inhibition apPOL 180' 10": "11.7395%"}
{"compound": "C#CC(C=CC)OC(=O)c1ccccc1C(=O)O (stereo not drawn) [Molecule 61, CC=CC(OC(=O)c1ccccc1C(=O)O)C#C]", "% inhibition apPOL 180' 10": "5.1086%"}
{"compound": "CC(C)CC(C(=O)O)N1C(=O)C2C3C=CC(C2C1=O)C1C(=O)N(C(CC(C)C)C(=O)O)C(=O)C31 (stereo not drawn) [KU0193449]", "% inhibition apPOL 180' 10": "22.2545%"}
{"compound": "Cn1nc(-c2nnc(-c3ccccc3F)o2)c2c1CCN(C(=O)c1ccccc1Cl)C2 [Molecule 34]", "% inhibition apPOL 180' 10": "41%"}

Prompt line: GET /values?readout=% inhibition apPOL 180' 10&system=P. falciparum apicoplast DNA polymerase (Pf-apPOL) (Plasmodium falciparum)&item= N#Cc1c(O)nc(N2CCCCC2)nc1-c1ccc2c(c1)OCO2 [KU0083146]
Response line: 30.2008%

Prompt line: GET /values?readout=% inhibition apPOL 180' 10&system=P. falciparum apicoplast DNA polymerase (Pf-apPOL) (Plasmodium falciparum)&item= COc1ccc(C2CC(c3ccc(Cl)cc3Cl)Nc3nc(N)nn32)cc1OC (stereo not drawn) [Molecule 43]
Response line: 35%

Prompt line: GET /values?readout=% inhibition apPOL 180' 10&system=P. falciparum apicoplast DNA polymerase (Pf-apPOL) (Plasmodium falciparum)&item= Nc1cc(Oc2ccc(O)c(N)c2)ccc1O [KU0034728]
Response line: 22.2951%

Prompt line: GET /values?readout=% inhibition apPOL 180' 10&system=P. falciparum apicoplast DNA polymerase (Pf-apPOL) (Plasmodium falciparum)&item= Cc1ccsc1Cn1c(C)ccc1C [Molecule 70, Cc1ccsc1Cn1c(C)ccc1C]
Response line: -1.934%

Prompt line: GET /values?readout=% inhibition apPOL 180' 10&system=P. falciparum apicoplast DNA polymerase (Pf-apPOL) (Plasmodium falciparum)&item= COc1ccc(/C=C/c2cc(C(=O)O)c3ccccc3n2)cc1 [Molecule 5, COc1ccc(cc1)/C=C/c1nc2ccccc2c(c1)C(=O)O]
Response line: 46.8104%

Prompt line: GET /values?readout=% inhibition apPOL 180' 10&system=P. falciparum apicoplast DNA polymerase (Pf-apPOL) (Plasmodium falciparum)&item= CCCc1ccc(Oc2coc3cc(OC)ccc3c2=O)cc1 [KU0193249]
Response line: 25.9143%
